Reference source for all entries: ChEMBL document CHEMBL1250432

target: UniProtKB P00381
Sequence (P00381 whole entry): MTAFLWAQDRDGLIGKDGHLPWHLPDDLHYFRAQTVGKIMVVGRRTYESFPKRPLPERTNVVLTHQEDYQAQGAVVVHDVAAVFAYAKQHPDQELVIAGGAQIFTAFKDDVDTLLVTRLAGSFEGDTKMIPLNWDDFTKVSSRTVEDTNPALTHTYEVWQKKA
observation.type: IC50 (nM)

                                test_smiles  observation_type  numeric_result
0  Nc1nc(N)c2nc(CNc3ccc(C(=O)NCCc4ccc(S(N)(=O)=O)cc4)cc3)cnc2n1              IC50           20000
1  CN(Cc1cnc2nc(N)nc(N)c2n1)c1ccc(C(=O)NCCc2ccc(S(N)(=O)=O)cc2)cc1              IC50            1800
2  Nc1nc(N)c2nc(CNc3ccc(S(N)(=O)=O)cc3)cnc2n1              IC50            2500
3  Nc1nc(N)c2nc(CNc3ccc(C(=O)NCCc4ccc(S(=O)(=O)O)cc4)cc3)cnc2n1              IC50            1300
